assay: yeast display, Sf9 membrane polyspecificity reagent, FACS + sequencing; frameworks hold sequencing errors
propertyLabel: polyreactivity (PSR sort gate)

sequenceString	measValue
QVQLGESGGGLVQAGGSLRLSCAASGLIIFSYAMGWSRQAPGKELEMVAAISRSGGRTYFADSVKGRFTISRDNAKNTVFLQMNRLKPEDTAVYYCAADDPYTPQYPDVTYDFWGQGTQVTVSS	high polyreactivity
QVQLVESGGGLVQAGGSLRLSCAASGFIFRLNAMGWYTQAPGKERELVATITSSGSTSYADSVKGRFTISRDNAKNTVYLQMNSLKPEDTAVYYCAARRLRYRYPLYSRNYWGQGTQVTVSS	high polyreactivity

Hello, the source for this data is the nanobody polyreactivity screen of Harvey et al. (2022), in case you need it.
